# system.under.test: T1, huNABA-avi-his (hybrid protein N-A1-B3-A2: N and A1 domains of human BGP, B3 domain of human CEA, A2 domain … (human, biotinylated at the avi tag (in vivo, co-transfected biotin ligase)))
# T1 construct: also called NABA-avi-his reagent; biotinylated NABA
# T1 chain: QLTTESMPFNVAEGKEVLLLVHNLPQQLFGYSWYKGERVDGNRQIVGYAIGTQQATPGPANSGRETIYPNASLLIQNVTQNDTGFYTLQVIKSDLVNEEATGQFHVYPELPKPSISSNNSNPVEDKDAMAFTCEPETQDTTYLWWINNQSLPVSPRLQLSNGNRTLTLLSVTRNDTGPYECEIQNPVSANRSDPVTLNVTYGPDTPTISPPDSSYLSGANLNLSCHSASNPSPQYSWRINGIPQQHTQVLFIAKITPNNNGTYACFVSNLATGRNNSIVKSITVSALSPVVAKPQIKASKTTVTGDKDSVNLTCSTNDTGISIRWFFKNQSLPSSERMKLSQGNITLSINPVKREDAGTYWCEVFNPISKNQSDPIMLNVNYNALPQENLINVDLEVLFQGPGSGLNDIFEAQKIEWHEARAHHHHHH
# experiment.summary: Biacore on immobilized NABA-avi-his; Bivalent Affinity
property.measured: kon
Your reply should be a number followed by the unit it is expressed in.

Examples with their reported kon follow.
What measured kon goes with 3A1 (bivalent) (antibody, V domains shown, bivalent form of the clone) VH: QVQLVQSGSELKKPGASVKVSCKASGYTFTEFGMNWVRQAPGQGLEWMGWINTKTGEATYVEEFKGRFVFSLDTSVSTAYLQISSLKAEDTAVYYCARWDFYDYVEAMDYWGQGTTVTVSS VL: DIQMTQSPSSLSASVGDRVTITCKASANVGNNVAWYQQKPGKAPKLLIYLASNRSGGVPSRFSGSGSGTDFTLTISSLQPEDFATYYCHQYYTYPLFTFGQGTKLEIK ?
242000 M⁻¹ s⁻¹

What measured kon goes with 1C8 x 2F1 (bivalent) (antibody, V domains shown, bivalent form of the clone; copies: 2 + 2) VH: QVQLVQSGSELKKPGASVKVSCKASGYTFTEFGMNWVRQAPGQGLEWMGWINTKTGEATYVEEFKGRFVFSLDTSVSTAYLQISSLKAEDTAVYYCARWDFYHYVEAMDYWGQGTTVTVSS VL: DIQMTQSPSSLSASVGDRVTITCKASAAVGTYVAWYQQKPGKAPKLLIYSASYRKRGVPSRFSGSGSGTDFTLTISSLQPEDFATYYCHQYYTYPLFTFGQGTKLEIK ?
968000 M⁻¹ s⁻¹

What measured kon goes with H3 Full (5) 8 x 2F1 (antibody, V domains shown, bivalent form; copies: 2 + 2) VH: QVQLVQSGSELKKPGASVKVSCKASGYTFTEFGMNWVRQAPGQGLEWMGWINTKTGEATYVEEFKGRFVFSLDTSVSTAYLQISSLKAEDTAVYYCARWDFFEYFKTMDYWGQGTTVTVSS VL: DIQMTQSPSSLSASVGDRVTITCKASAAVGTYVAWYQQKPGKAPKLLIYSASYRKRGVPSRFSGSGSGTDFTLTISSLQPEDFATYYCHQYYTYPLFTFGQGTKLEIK ?
993000 M⁻¹ s⁻¹

What measured kon goes with humanized PR1A3 antibody with heavy chain variable region CH7A and light chain variable region 2F1 (antibody, V domains shown, Measured in the bivalent form; also called CH7Ax2F1; parental antibody CH7A) VH: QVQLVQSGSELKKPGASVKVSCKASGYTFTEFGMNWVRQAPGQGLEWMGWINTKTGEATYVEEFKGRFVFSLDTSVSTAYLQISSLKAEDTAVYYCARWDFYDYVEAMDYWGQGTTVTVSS VL: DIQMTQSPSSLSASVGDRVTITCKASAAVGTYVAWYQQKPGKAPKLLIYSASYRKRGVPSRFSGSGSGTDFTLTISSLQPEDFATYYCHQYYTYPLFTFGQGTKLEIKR ?
423000 M⁻¹ s⁻¹

Shifting focus to the binder that follows.
What measured kon goes with humanized PR1A3 antibody comprising heavy chain variable region construct CH7A and light chain variable region construct CL1A (antibody, human IgG1, V domains shown, also called CH7A CL1A; CH7A, CL1A) VH: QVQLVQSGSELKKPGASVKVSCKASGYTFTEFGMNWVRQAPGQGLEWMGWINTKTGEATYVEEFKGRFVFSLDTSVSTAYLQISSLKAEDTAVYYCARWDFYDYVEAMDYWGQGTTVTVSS VL: DIQMTQSPSSLSASVGDRVTITCKASQNVGTNVAWYQQKPGKAPKLLIYSASYRYSGVPSRFSGSGSGTDFTLTISSLQPEDFATYYCHQYYTYPLFTFGQGTKLEIK ?
282000 M⁻¹ s⁻¹

Cited source: patent US20230365711A1
